biological target: recombinant human liver GK (Homo sapiens, UniProt P35557); experiment: Glucokinase-activating effect (Thio-NADH production via G6PDH-coupled assay); settings: final glucose concentration 2.5 mM; 30° C.
Sequence (P35557 1-466 isoform P35557-2): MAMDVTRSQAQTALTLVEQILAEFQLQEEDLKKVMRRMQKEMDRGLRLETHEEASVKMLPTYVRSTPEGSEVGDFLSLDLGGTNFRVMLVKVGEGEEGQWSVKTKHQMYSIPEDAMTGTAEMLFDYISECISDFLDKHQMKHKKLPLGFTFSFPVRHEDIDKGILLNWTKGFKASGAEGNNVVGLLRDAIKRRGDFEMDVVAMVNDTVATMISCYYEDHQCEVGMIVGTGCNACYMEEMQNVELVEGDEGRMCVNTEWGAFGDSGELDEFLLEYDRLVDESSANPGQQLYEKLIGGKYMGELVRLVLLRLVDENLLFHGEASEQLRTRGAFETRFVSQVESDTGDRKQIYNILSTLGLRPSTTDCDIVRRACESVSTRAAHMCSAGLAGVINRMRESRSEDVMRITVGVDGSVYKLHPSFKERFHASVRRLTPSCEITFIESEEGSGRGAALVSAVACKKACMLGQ
pEC50: −log10 of the molar value.
observation.type: pEC50

Some solved entries appear below for comparison.
CC(C)N1CC(Oc2ccc(Sc3ccc(Sc4nncn4C)nc3C(=O)Nc3ccn(C)n3)cc2)C1: 6.82
Cn1ccc(NC(=O)c2nc(Sc3nncn3C)ccc2Sc2ccc(OCCN3CCCC3)cc2)n1: 7.10
CCN1CC(COc2ccc(Sc3ccc(Sc4nncn4C)nc3C(=O)Nc3ccn(C)n3)cc2)C1: 7.22
CN(C)CCOc1ccc(Sc2ccc(Sc3nncn3C)nc2C(=O)Nc2ccn(C)n2)cc1: 6.92
CN(C)CCOc1ccc(Sc2ccc(Sc3nncn3C)nc2C(=O)Nc2ccn(C)n2)cn1: 6.74
CCN1CC(Oc2ccc(Sc3ccc(Sc4nncn4C)nc3C(=O)Nc3ccn(C)n3)cc2)C1: 6.92
CC(C)N1CC(COc2ccc(Sc3ccc(Sc4nncn4C)nc3C(=O)Nc3ccn(C)n3)cc2)C1: 7.10

a. CN1CC(Oc2ccc(Sc3ccc(Sc4nncn4C)nc3C(=O)Nc3ccn(C)n3)cc2)C1
b. CCN(CC)CCOc1ccc(Sc2ccc(Sc3nncn3C)nc2C(=O)Nc2ccn(C)n2)cc1
-- ask Rank a against b by their pEC50 values and give the higher one. Reply with the label of the item you choose.
-- reply a
(a: 7.15, b: 6.70)
